test system: 922993-354-T-J3-PDC complex spheroid viability; test: Anticancer human tumor 922993-354-T-J3-PDC patient-derived endometrial carcinoma cell line growth inhibition [POLQ]; conditions: second compound 0.1 µM; first compound 1 µM; active = viability on the fitted dose curve at most 10% of control; inactive = the rest
Permitted responses: label 1 for active, label 0 for inactive

Please share the test call associated with COc1cc(C2c3cc4c(cc3C(OC3OC5COC(C)OC5C(O)C3O)C3COC(=O)C23)OCO4)cc(OC)c1O (stereo not given) + Nc1ccc(C#CCN(C(=O)Cc2ncc(C(F)(F)F)cc2C(F)(F)F)c2ccc(F)cc2)nn1 .
label 0

Please share the test call associated with CCc1c2c(nc3ccc(O)cc13)-c1cc3c(c(=O)n1C2)COC(=O)[C@]3(O)CC + Cc1cccc(N(C)C(=O)C2C(O)CCN2c2nc(C)cc(C(F)(F)F)c2C#N)c1 .
label 0

Please share the test call associated with COc1cccc(OCCCN)c1-c1cc(Nc2cnc(C#N)cn2)n[nH]1 + COC1C(OC(N)=O)C(O)C(Oc2ccc3c(O)c(NC(=O)c4ccc(O)c(CC=C(C)C)c4)c(=O)oc3c2C)OC1(C)C .
label 1

Please share the test call associated with CC1COCCN1c1cc(-c2ccnn2C)c2ccnc(-c3ccn[nH]3)c2n1 (stereo not given) + Nc1ccc(C#CCN(C(=O)Cc2ncc(C(F)(F)F)cc2C(F)(F)F)c2ccc(F)cc2)nn1 .
label 0

Please share the test call associated with C#Cc1c(F)ccc2cc(O)cc(-c3ncc4c(N5CC6CCC(C5)N6)nc(OCC56CCCN5CC(F)C6)nc4c3F)c12 (stereo not given) + Nc1ccc(C#CCN(C(=O)Cc2ncc(C(F)(F)F)cc2C(F)(F)F)c2ccc(F)cc2)nn1 .
label 0

----------
system: 922993-354-T-J3-PDC complex spheroid viability; assay: Anticancer human tumor 922993-354-T-J3-PDC cell line growth inhibition [POLQ]; conditions: second compound 0.1 µM; first compound 0.1 µM; active compounds read low;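 also: spheroids exposed to the agents for one week; 100% = DMSO vehicle control wells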
READOUT: viability, T/C (%)
Numeric answer only, unit % assumed.

Can you share its viability, T/C? I mean this compound: CC1COCCN1c1cc(C2(O)CC3CCC(C2)O3)c2cnn(-c3ccn[nH]3)c2n1 (stereo not given) + Cc1cccc(N(C)C(=O)C2C(O)CCN2c2nc(C)cc(C(F)(F)F)c2C#N)c1
93.7

Can you share its viability, T/C? I mean this compound: CC(C)n1c(=O)n(C)c2cnc3cc(F)c(-c4ccc(OCCCN5CCCCC5)nc4)cc3c21 + Cc1cccc(N(C)C(=O)C2C(O)CCN2c2nc(C)cc(C(F)(F)F)c2C#N)c1
108

Can you share its viability, T/C? I mean this compound: CC(C)n1c(=O)n(C)c2cnc3cc(F)c(-c4ccc(OCCCN5CCCCC5)nc4)cc3c21 + Nc1ccc(C#CCN(C(=O)Cc2ncc(C(F)(F)F)cc2C(F)(F)F)c2ccc(F)cc2)nn1
103

Can you share its viability, T/C? I mean this compound: O=c1[nH]cc(F)c(=O)[nH]1 + Nc1ccc(C#CCN(C(=O)Cc2ncc(C(F)(F)F)cc2C(F)(F)F)c2ccc(F)cc2)nn1
103

Can you share its viability, T/C? I mean this compound: CCCS(=O)(=O)Nc1ccc(F)c(C(=O)c2c[nH]c3ncc(-c4ccc(Cl)cc4)cc23)c1F + COC1C(OC(N)=O)C(O)C(Oc2ccc3c(O)c(NC(=O)c4ccc(O)c(CC=C(C)C)c4)c(=O)oc3c2C)OC1(C)C
103

Can you share its viability, T/C? I mean this compound: COc1cc2cc(C(=O)CCC(=O)O)sc2cc1OC + COC1C(OC(N)=O)C(O)C(Oc2ccc3c(O)c(NC(=O)c4ccc(O)c(CC=C(C)C)c4)c(=O)oc3c2C)OC1(C)C
110

Can you share its viability, T/C? I mean this compound: COc1ccc([C@@H](O)c2cc(-c3ncnc4cc(N5CCOCC5)ccc34)c(F)cc2Cl)nn1 + Nc1ccc(C#CCN(C(=O)Cc2ncc(C(F)(F)F)cc2C(F)(F)F)c2ccc(F)cc2)nn1
104

Can you share its viability, T/C? I mean this compound: COc1cccc(OCCCN)c1-c1cc(Nc2cnc(C#N)cn2)n[nH]1 + COC1C(OC(N)=O)C(O)C(Oc2ccc3c(O)c(NC(=O)c4ccc(O)c(CC=C(C)C)c4)c(=O)oc3c2C)OC1(C)C
87.2

Can you share its viability, T/C? I mean this compound: CCc1c2c(nc3ccc(O)cc13)-c1cc3c(c(=O)n1C2)COC(=O)[C@]3(O)CC + Nc1ccc(C#CCN(C(=O)Cc2ncc(C(F)(F)F)cc2C(F)(F)F)c2ccc(F)cc2)nn1
17.9

Can you share its viability, T/C? I mean this compound: O=C(c1cc(Cc2n[nH]c(=O)c3ccccc23)ccc1F)N1CCN(C(=O)C2CC2)CC1 + Cc1cccc(N(C)C(=O)C2C(O)CCN2c2nc(C)cc(C(F)(F)F)c2C#N)c1
103

Can you share its viability, T/C? I mean this compound: CCCS(=O)(=O)Nc1ccc(F)c(C(=O)c2c[nH]c3ncc(-c4ccc(Cl)cc4)cc23)c1F + Nc1ccc(C#CCN(C(=O)Cc2ncc(C(F)(F)F)cc2C(F)(F)F)c2ccc(F)cc2)nn1
108

Can you share its viability, T/C? I mean this compound: CCc1cc2c(N3CCc4c(cc(Cn5ccnc5)cc4-c4cn(C)nc4C(F)(F)F)C3=O)ccnc2c(OC)n1 + Cc1cccc(N(C)C(=O)C2C(O)CCN2c2nc(C)cc(C(F)(F)F)c2C#N)c1
106

Can you share its viability, T/C? I mean this compound: C=CC(=O)N1CCN(c2nc(=O)n(-c3c(C)ccnc3C(C)C)c3nc(-c4c(O)cccc4F)c(F)cc23)C(C)C1 (stereo not given) + Nc1ccc(C#CCN(C(=O)Cc2ncc(C(F)(F)F)cc2C(F)(F)F)c2ccc(F)cc2)nn1
106

Can you share its viability, T/C? I mean this compound: CCc1cc2c(N3CCc4c(cc(Cn5ccnc5)cc4-c4cn(C)nc4C(F)(F)F)C3=O)cc(C)nc2c(OC)n1 + COC1C(OC(N)=O)C(O)C(Oc2ccc3c(O)c(NC(=O)c4ccc(O)c(CC=C(C)C)c4)c(=O)oc3c2C)OC1(C)C
94.3

Can you share its viability, T/C? I mean this compound: C#Cc1c(F)ccc2cc(O)cc(-c3ncc4c(N5CC6CCC(C5)N6)nc(OCC56CCCN5CC(F)C6)nc4c3F)c12 (stereo not given) + COC1C(OC(N)=O)C(O)C(Oc2ccc3c(O)c(NC(=O)c4ccc(O)c(CC=C(C)C)c4)c(=O)oc3c2C)OC1(C)C
101

Can you share its viability, T/C? I mean this compound: O=C(c1cc(Cc2n[nH]c(=O)c3ccccc23)ccc1F)N1CCN(C(=O)C2CC2)CC1 + COC1C(OC(N)=O)C(O)C(Oc2ccc3c(O)c(NC(=O)c4ccc(O)c(CC=C(C)C)c4)c(=O)oc3c2C)OC1(C)C
95

Can you share its viability, T/C? I mean this compound: CCCS(=O)(=O)Nc1ccc(F)c(C(=O)c2c[nH]c3ncc(-c4ccc(Cl)cc4)cc23)c1F + Cc1cccc(N(C)C(=O)C2C(O)CCN2c2nc(C)cc(C(F)(F)F)c2C#N)c1
102

Can you share its viability, T/C? I mean this compound: O=C(Nc1ccc(O)c(NS(=O)(=O)c2ccc(F)cc2)c1)c1ccc(-c2ccccc2)cc1 + COC1C(OC(N)=O)C(O)C(Oc2ccc3c(O)c(NC(=O)c4ccc(O)c(CC=C(C)C)c4)c(=O)oc3c2C)OC1(C)C
97.1

Can you share its viability, T/C? I mean this compound: COc1cc2cc(C(=O)CCC(=O)O)sc2cc1OC + Cc1cccc(N(C)C(=O)C2C(O)CCN2c2nc(C)cc(C(F)(F)F)c2C#N)c1
105

Can you share its viability, T/C? I mean this compound: CCc1cc2c(N3CCc4c(cc(Cn5ccnc5)cc4-c4cn(C)nc4C(F)(F)F)C3=O)cc(C)nc2c(OC)n1 + Nc1ccc(C#CCN(C(=O)Cc2ncc(C(F)(F)F)cc2C(F)(F)F)c2ccc(F)cc2)nn1
106

----------
tested on: 922993-354-T-J3-PDC complex spheroid viability; assay: Anticancer human tumor 922993-354-T-J3-PDC cell line growth inhibition [POLQ]; settings: second compound 0.316 µM; first compound 10 µM; active compounds read low;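 also: spheroids exposed to the agents for one week; 100% = DMSO vehicle control wells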
// boundary case: viability, T/C equal to 80% maps to Condition not met; strictly smaller maps to Condition met

Criterion: viability, T/C strictly below 80%. Is it met by COc1cc(C2c3cc4c(cc3C(OC3OC5COC(C)OC5C(O)C3O)C3COC(=O)C23)OCO4)cc(OC)c1O (stereo unspecified) + Cc1cccc(N(C)C(=O)C2C(O)CCN2c2nc(C)cc(C(F)(F)F)c2C#N)c1 ?
Condition met

Criterion: viability, T/C strictly below 80%. Is it met by C#Cc1c(F)ccc2cc(O)cc(-c3ncc4c(N5CC6CCC(C5)N6)nc(OCC56CCCN5CC(F)C6)nc4c3F)c12 (stereo unspecified) + COC1C(OC(N)=O)C(O)C(Oc2ccc3c(O)c(NC(=O)c4ccc(O)c(CC=C(C)C)c4)c(=O)oc3c2C)OC1(C)C ?
Condition not met

Criterion: viability, T/C strictly below 80%. Is it met by CCCS(=O)(=O)Nc1ccc(F)c(C(=O)c2c[nH]c3ncc(-c4ccc(Cl)cc4)cc23)c1F + Cc1cccc(N(C)C(=O)C2C(O)CCN2c2nc(C)cc(C(F)(F)F)c2C#N)c1 ?
Condition not met

Criterion: viability, T/C strictly below 80%. Is it met by C=CC(=O)N1CCN(c2nc(=O)n(-c3c(C)ccnc3C(C)C)c3nc(-c4c(O)cccc4F)c(F)cc23)C(C)C1 (stereo unspecified) + Nc1ccc(C#CCN(C(=O)Cc2ncc(C(F)(F)F)cc2C(F)(F)F)c2ccc(F)cc2)nn1 ?
Condition not met

Criterion: viability, T/C strictly below 80%. Is it met by O=C(c1cc(Cc2n[nH]c(=O)c3ccccc23)ccc1F)N1CCN(C(=O)C2CC2)CC1 + COC1C(OC(N)=O)C(O)C(Oc2ccc3c(O)c(NC(=O)c4ccc(O)c(CC=C(C)C)c4)c(=O)oc3c2C)OC1(C)C ?
Condition not met

Criterion: viability, T/C strictly below 80%. Is it met by C#Cc1c(F)ccc2cc(O)cc(-c3ncc4c(N5CC6CCC(C5)N6)nc(OCC56CCCN5CC(F)C6)nc4c3F)c12 (stereo unspecified) + Nc1ccc(C#CCN(C(=O)Cc2ncc(C(F)(F)F)cc2C(F)(F)F)c2ccc(F)cc2)nn1 ?
Condition not met

Criterion: viability, T/C strictly below 80%. Is it met by CNCc1ccc(-c2[nH]c3cc(F)cc4c3c2CCNC4=O)cc1 + Cc1cccc(N(C)C(=O)C2C(O)CCN2c2nc(C)cc(C(F)(F)F)c2C#N)c1 ?
Condition not met

Criterion: viability, T/C strictly below 80%. Is it met by Nc1ccn(C2OC(CO)C(O)C2(F)F)c(=O)n1 (stereo unspecified) + Nc1ccc(C#CCN(C(=O)Cc2ncc(C(F)(F)F)cc2C(F)(F)F)c2ccc(F)cc2)nn1 ?
Condition met

Criterion: viability, T/C strictly below 80%. Is it met by COc1cccc2c1C(=O)c1c(O)c3c(c(O)c1C2=O)CC(O)(C(=O)CO)CC3OC1CC(N)C(O)C(C)O1 (stereo unspecified) + Cc1cccc(N(C)C(=O)C2C(O)CCN2c2nc(C)cc(C(F)(F)F)c2C#N)c1 ?
Condition met
